procedure.text: Toxicity liver stage against HepG2, at 10uM
Format: cell-based
Parameters: test concentration 10 uM, cell line HepG2-A16-CD81EGFP
applied.conditions: human, HepG2-A16-CD81EGFP cells; read-out: INHIBITION
measurement.name: cytotoxicity at 10 µM (%)

{"columns": ["compound", "measure.unit", "endpoint.result"],
 "data": [
  ["O=C(NCCn1ccnc1)c1cccc(F)c1", "%", -10],
  ["CCNc1cc2c(nn1)CCN(C(=O)c1ccc(NC3CC3)nc1)C2", "%", -12.3],
  ["CCc1nc(CN(C(C)=O)C2CCN(CCc3ccncc3)C2)no1 (stereo unspecified)", "%", -22.3],
  ["CCS(=O)(=O)N1CCC[C@]2(C(=O)N(C)C)CN(c3ccccn3)C[C@@H]2C1", "%", -8.93],
  ["Cc1cc(C[C@@H]2CCC[C@H]2NCc2ccc(C(F)(F)F)cc2)on1", "%", -10.1],
  ["O=C(O)c1cnc(-c2cccc3c2CCNC3)c(Cl)c1", "%", 8.97],
  ["COC(=O)CC1c2cccnc2C(=O)N1Cc1ccccc1 (stereo unspecified)", "%", 1.19],
  ["Cc1cc(C(=O)Nc2ccnc(OC3CCOC3)c2)c(C)o1 (stereo unspecified)", "%", 6.66],
  ["COCC(=O)N1CCC(c2n[nH]c3nccnc23)CC1", "%", -8.38],
  ["O=C(C1CN(Cc2ccoc2)CC12CCOCC2)N1CCCC1 (stereo unspecified)", "%", 11.2],
  ["CN(C)C(=O)c1nc2c(s1)CCN(C(=O)c1ccc(Cl)cc1)CC2", "%", -14.2],
  ["CNC(=O)c1ccc(OC)c(NCc2noc(-c3cccs3)n2)c1", "%", 2.76],
  ["CNC(=O)CCc1cccc(OC2CCCC2)c1", "%", -0.408],
  ["Cc1ccc(C(=O)N2CCC3(CCN(c4ccsc4)C3=O)C2)cn1 (stereo unspecified)", "%", -127],
  ["COc1cncc(-n2ccnc2-c2ccc(C(=O)O)s2)c1", "%", 0.571],
  ["CC(C)CNC[C@H]1COCc2nc3cccnc3n21", "%", -4.48]
]}
